biological target: human MGL from HeLa cells (Homo sapiens (Human)); test: MGL in vitro activity assay ([glycerol-1,3-3H]-oleoyl glycerol hydrolysis, activated carbon filtration); details: 300 nM [Glycerol-1,3-3H]-oleoyl glycerol, one hour
Sequence (Q99685 whole entry): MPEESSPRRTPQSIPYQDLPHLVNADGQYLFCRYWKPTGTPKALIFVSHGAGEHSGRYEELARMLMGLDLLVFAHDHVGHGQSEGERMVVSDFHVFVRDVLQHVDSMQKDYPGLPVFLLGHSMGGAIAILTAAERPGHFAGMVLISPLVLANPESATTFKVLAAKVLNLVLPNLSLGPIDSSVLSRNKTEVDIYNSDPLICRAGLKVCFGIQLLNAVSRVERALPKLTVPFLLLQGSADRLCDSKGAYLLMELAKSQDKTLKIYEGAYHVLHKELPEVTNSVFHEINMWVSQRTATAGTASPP
pIC50: −log10 of the molar value.
Kindly return Fulfilled if reported pIC50 is no lower than 8; return Not fulfilled if it is lower.

Reference set, count: 3
1. Cc1ccc(OC2CCC3(C2)CN(C(=O)[C@H]2C[C@@](C)(O)C2)C3)cc1C1CC1 (mixture of isomers) [Example 332] | Not fulfilled
2. Cc1ccc(C(F)(F)F)cc1OC1CCC2(CC1)CN(C(=O)[C@H]1C[C@@](C)(O)C1)C2 [Example 416] | Fulfilled
3. Cc1cccc(CC2CC3(C2)CN(C(=O)[C@H]2C[C@@](C)(O)C2)C3)c1C(F)(F)F [Example 209] | Fulfilled

// inclusive: pIC50 at least 8? input: CC(C)(C)c1cccc(C2CC3(CCN(C(=O)[C@H]4C[C@@](C)(O)C4)CC3)C2)c1 [Example 153] Not fulfilled

// inclusive: pIC50 at least 8? input: Cc1cccc(CC2CCC3(CC2)CN(C(=O)[C@H]2C[C@@](C)(O)C2)C3)c1F [Example 398] Not fulfilled

// inclusive: pIC50 at least 8? input: C[C@@H](c1ccccc1)[C@@H]1CCC2(C1)CN(C(=O)[C@H]1C[C@@](C)(O)C1)C2 (single isomer, unassigned) [Example 337] Not fulfilled

// inclusive: pIC50 at least 8? input: C[C@]1(O)C[C@@H](C(=O)N2CC3(CC(c4cccc(C5CC5)c4)C3)C2)C1 [Example 20] Not fulfilled
